B1: LINE1-full (parent)
chain: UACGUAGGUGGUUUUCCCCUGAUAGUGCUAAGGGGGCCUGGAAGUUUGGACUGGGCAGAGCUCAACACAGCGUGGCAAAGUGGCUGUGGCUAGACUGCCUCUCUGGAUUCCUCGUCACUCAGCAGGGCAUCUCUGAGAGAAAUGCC

variants of: B1; assay: self-cleavage, relative activity (ratio to wild type); higher = more cleavage; in vitro, sequencing; the parent is a self-cleaving ribozyme
Cut-off 0.2 on self-cleavage, inclusive. At or above means true (1); below means false (0).

Here's what some known entries look like.
U62A A142G
false (0)
G80U A121G
true (1)
G27A G34A
true (1)
A43U A64G
true (1)

Request: Exam item: decide whether the reported self-cleavage for A64U C113A is at least 0.2.
Result: false (0)

Request: Decide: is the reported value of self-cleavage for G34A U52A equal to or greater than 0.2?
Result: true (1)

Request: # bool: self-cleavage of U1A A138G >= 0.2
Result: true (1)

Request: Given A42G G127U , state whether its self-cleavage is at least 0.2.
Result: true (1)
